target system: T1, human TREM2 (human, UniProt Q9NZC2 19-174, limits assumed)
T1 construct: also called triggering receptor expressed on myeloid cells 2
T1 sequence: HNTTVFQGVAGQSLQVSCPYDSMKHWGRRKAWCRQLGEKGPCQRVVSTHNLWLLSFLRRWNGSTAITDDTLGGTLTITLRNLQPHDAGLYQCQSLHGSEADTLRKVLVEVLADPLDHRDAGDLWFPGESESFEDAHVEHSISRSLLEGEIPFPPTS
test name: 1st screen, 10 nM Ab
Quick reference: Binding Signal of the listed items.
measured parameter: Binding Signal

{"binder": "V40 (antibody, V domains shown, also called 6E7 variant V40) VH: EVQLVQSGAEVKKPGESLKISCKGSGYSFGSYWIAWVRQMPGKGLEWMGIIYPGDSDVRYSPSFQGQVTISADKSISTAYLQWSSLKASDTAMYFCARQRTFYYDSSDYSDYWGQGTLVTVSS VL: DIQMTQSPSSVSASVGDRVTITCRASQGISSWLAWYQQKPGKAPKLLIYAASSLQLGVPSRFSGSGSGTDFTLTISSLQPEDFATYFCQQADRFPRTFGQGTKLEIK", "result": "4.48 fold over 6E7 parental antibody"}
{"binder": "V73 (antibody, V domains shown, also called 6E7 variant V73; LV-106/HV-109) VH: EVQLVQSGAEVKKPGESLKISCKGSGYSFGSYWIAWVRQMPGKGLEWMGIIYPGDSDTRYSPGFQGQVTISADKSISTAYLQWSSLKASDTAMYFCARGRTFYYDSSDYFDYWGQGTLVTVSS VL: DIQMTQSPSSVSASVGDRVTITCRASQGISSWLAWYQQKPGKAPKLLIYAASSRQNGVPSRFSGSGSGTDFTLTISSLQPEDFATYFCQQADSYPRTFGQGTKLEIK", "result": "5.12 fold over 6E7 parental antibody"}
